Recorded values, source patent US5854002A.

# test target: Drosophila Grd and LCCH3 (Drosophila melanogaster, UniProt Q08832+Q24352)
# Sequence (Q24352 59-686): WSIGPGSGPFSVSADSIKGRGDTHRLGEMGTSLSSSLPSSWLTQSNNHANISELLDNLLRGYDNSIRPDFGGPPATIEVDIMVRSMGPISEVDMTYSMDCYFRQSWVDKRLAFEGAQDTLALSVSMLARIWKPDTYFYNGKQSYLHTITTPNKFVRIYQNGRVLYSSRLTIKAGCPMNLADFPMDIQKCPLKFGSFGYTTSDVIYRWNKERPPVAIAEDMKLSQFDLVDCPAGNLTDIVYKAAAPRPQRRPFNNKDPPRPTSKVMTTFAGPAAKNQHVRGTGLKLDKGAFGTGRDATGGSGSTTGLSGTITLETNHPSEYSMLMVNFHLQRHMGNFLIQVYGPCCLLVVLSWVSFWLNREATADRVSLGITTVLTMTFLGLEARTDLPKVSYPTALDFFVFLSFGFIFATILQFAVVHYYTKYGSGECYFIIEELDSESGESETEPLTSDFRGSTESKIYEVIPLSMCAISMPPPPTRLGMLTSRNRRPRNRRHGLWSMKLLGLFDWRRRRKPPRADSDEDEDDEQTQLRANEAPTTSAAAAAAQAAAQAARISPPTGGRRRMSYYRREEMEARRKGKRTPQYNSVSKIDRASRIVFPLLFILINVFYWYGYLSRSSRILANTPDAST
# Sequence (Q08832 21-496): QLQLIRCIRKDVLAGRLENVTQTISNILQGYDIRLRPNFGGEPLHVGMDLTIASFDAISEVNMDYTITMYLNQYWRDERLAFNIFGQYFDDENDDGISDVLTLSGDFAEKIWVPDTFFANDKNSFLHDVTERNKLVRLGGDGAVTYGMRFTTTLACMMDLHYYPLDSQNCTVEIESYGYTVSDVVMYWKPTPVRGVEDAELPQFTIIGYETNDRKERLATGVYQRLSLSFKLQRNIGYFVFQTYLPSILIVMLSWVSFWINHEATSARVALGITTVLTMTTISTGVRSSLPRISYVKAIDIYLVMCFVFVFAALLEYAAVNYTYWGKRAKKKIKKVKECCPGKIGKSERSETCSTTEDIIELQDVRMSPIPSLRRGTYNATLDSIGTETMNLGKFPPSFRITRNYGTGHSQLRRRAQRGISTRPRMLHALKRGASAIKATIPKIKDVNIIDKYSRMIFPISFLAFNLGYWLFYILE
# protocol notes: [3H] muscimol radioligand binding assay, membranes of High Five cells co-infected with vBP8-Grd/vBP8-LCCH3
# condition notes: [3H] muscimol saturation binding, High Five cell membranes
quantity name: pKd
Friendly reminder that pKd comes from taking -log10 of the concentration in mol/L.

Task: Item NCc1cc(O)no1 [[^3 H] muscimol] has what recorded pKd?
Result: 7.92

----------
# test target: Rat brain
# protocol notes: [3H] muscimol binding, rat brain (previous assays of the inventors)
# condition notes: half-maximal displacement of [3H] muscimol, previous assays by the inventors
quantity name: IC50

Task: I have this molecule here, `O=C(O)C1CCNCC1` , and I need its recorded IC50.
Result: 1.43 µM

Task: Do the same for COc1ccc2c(c1OC)C(=O)O[C@@H]2[C@H]1c2cc3c(cc2CCN1C)OCO3 [Hydrastine] please
Result: 2.61 µM

Task: // query: `O=C(O)C1=CCNCC1`
Result: 0.289 µM

Task: Would you kindly repeat that for `NCc1cc(=O)[nH]o1` ?
Result: 0.043 µM

Task: Also check NCC(CC(=O)O)c1ccc(Cl)cc1 (stereo not drawn)
Result: > 1000 µM

Task: And the next one, `CP(=O)(O)CCCN` ?
Result: > 1000 µM

Task: Can you check `NCCCCC(=O)O` next?
Result: > 1000 µM

Task: Moving on to NC/C=C\C(=O)O [cis-4-amino-crotonic acid]
Result: > 1000 µM

Task: Now consider `CN1CCc2cc3c(cc2[C@H]1[C@@H]1OC(=O)c2c1ccc1c2OCO1)OCO3` .
Result: 19 µM
